Here we list compounds with their recorded Kd when tested on HmtS (Streptomyces himastatinicus).
Sequence (G0LWB2 2-397): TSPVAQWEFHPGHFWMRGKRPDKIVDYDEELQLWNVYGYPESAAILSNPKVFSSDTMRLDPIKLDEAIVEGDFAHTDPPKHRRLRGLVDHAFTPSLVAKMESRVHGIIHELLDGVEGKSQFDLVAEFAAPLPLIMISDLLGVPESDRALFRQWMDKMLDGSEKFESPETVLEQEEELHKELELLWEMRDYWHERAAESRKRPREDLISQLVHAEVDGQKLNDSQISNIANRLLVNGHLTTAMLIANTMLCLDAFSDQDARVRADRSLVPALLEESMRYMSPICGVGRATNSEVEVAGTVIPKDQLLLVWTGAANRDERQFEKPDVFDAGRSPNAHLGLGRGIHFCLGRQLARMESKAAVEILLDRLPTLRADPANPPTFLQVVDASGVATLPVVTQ
experimental endpoint: Kd (µM)

Cc1cc2nc3c(=O)[nH]c(=O)nc-3n(C[C@H](O)[C@H](O)[C@H](O)COP(=O)(O)O)c2cc1C; 40

a = NC(=O)C1=CN([C@@H]2O[C@H](COP(=O)(O)OP(=O)(O)OC[C@H]3O[C@@H](n4cnc5c(N)ncnc54)[C@H](OP(=O)(O)O)[C@@H]3O)[C@@H](O)[C@H]2O)C=CC1
b = Cc1cc2nc3c(=O)[nH]c(=O)nc-3n(C[C@H](O)[C@H](O)[C@H](O)CO)c2cc1C
c = Cc1cc2nc3c(=O)[nH]c(=O)nc-3n(C[C@H](O)[C@H](O)[C@H](O)COP(=O)(O)OP(=O)(O)OC[C@H]3O[C@@H](n4cnc5c(N)ncnc54)[C@H](O)[C@@H]3O)c2cc1C
Sort entries by Kd from minimum to maximum value. Ranked list of labels, please, in the requested order.
b, c, a
